Recorded measurements of EC50, one per entry
tested on: HCV 1b-377-neo replicon cells; assay: HCV replicon FRET assay; format: cell-based; conditions: Hepatitis C virus; HCV replicon; read-out: Activity (EC50)

Sample answers from the record:
Molecule: Nc1ccc(/C=C/c2ccc(NC(=O)[C@@H]3CCCN3C(=O)Cc3ccccc3)cc2)cc1 [Example 250A]
Quantity Measured: EC50
Result: 1000 to 10000 nM

Molecule: O=C(Nc1ccc(/C=C/c2ccc(NC(=O)[C@@H]3CCCN3C(=O)Cc3ccccc3F)cc2)cc1)[C@@H]1CCCN1C(=O)Cc1ccccc1F
Quantity Measured: EC50
Result: 0.1 to 90 nM

Molecule: CCO[C@@H]1C[C@@H](C(=O)Nc2ccc(/C=C/c3ccc(NC(=O)[C@@H]4C[C@H](OCC)CN4C(=O)OCc4ccccc4)cc3)cc2)N(C(=O)OCc2ccccc2)C1
Quantity Measured: EC50
Result: 1000 to 10000 nM

Molecule: O=C(Nc1ccc(/C=C/c2ccc(NC(=O)[C@@H]3CCCN3C(=O)c3cccc4cc[nH]c34)cc2)cc1)[C@@H]1CCCN1C(=O)c1cccc2cc[nH]c12
Quantity Measured: EC50
Result: 100 to 1000 nM

Molecule: O=C(Nc1ccc(/C=C/c2ccc(NC(=O)[C@@H]3CCCN3C(=O)c3ncccc3OCc3ccccc3)cc2)cc1)[C@@H]1CCCN1C(=O)c1ncccc1OCc1ccccc1
Quantity Measured: EC50
Result: 1000 to 10000 nM

Molecule: CC(=O)N1CCCC1C(=O)Nc1ccc(/C=C/c2ccc(NC(=O)[C@@H]3CCCN3C(=O)Cc3ccccc3)cc2)cc1 (stereo partly drawn)
Quantity Measured: EC50
Result: 0.1 to 90 nM

Molecule: O=C(Nc1ccc(/C=C/c2ccc(NC(=O)[C@@H]3CCCN3C(=O)c3ccccc3OCc3ccccc3)cc2)cc1)[C@@H]1CCCN1C(=O)c1ccccc1OCc1ccccc1
Quantity Measured: EC50
Result: 1000 to 10000 nM

Molecule: [N-]=[N+]=Nc1ccc(C(=O)N2CCC[C@H]2C(=O)Nc2ccc(/C=C/c3ccc(NC(=O)[C@@H]4CCCN4C(=O)Cc4ccccc4)cc3)cc2)cc1
Quantity Measured: EC50
Result: 0.1 to 90 nM

// lookup EC50 for O=C(Nc1ccc(/C=C/c2ccc(NC(=O)[C@@H]3CCCN3C(=O)[C@H]3CCCO3)cc2)cc1)C1CC1
100 to 1000 nM

// lookup EC50 for O=C(Nc1ccc(/C=C/c2ccc(NC(=O)[C@@H]3C=CCN3C(=O)C3CCC3)cc2)cc1)[C@@H]1C=CCN1C(=O)C1CCC1
100 to 1000 nM

// lookup EC50 for Cc1cc(CC(=O)N2CCC[C@H]2C(=O)Nc2ccc(/C=C/c3ccc(NC(=O)[C@@H]4CCCN4C(=O)C4CCC4)cc3)cc2)on1
0.1 to 90 nM

// lookup EC50 for Cc1ncccc1C(=O)N1CCC[C@H]1C(=O)Nc1ccc(/C=C/c2ccc(NC(=O)[C@@H]3CCCN3C(=O)c3cccnc3C)cc2)cc1
100 to 1000 nM

---

tested on: HCV 1b-377-neo replicon cells; assay: HCV replicon FRET assay; type: cell-based; conditions: Hepatitis C virus; HCV replicon; read-out: Activity (EC50)
Quantity Measured: EC50

Compound: CC(=O)N1CCC[C@H]1C(=O)Nc1ccc(/C=C/c2ccc(NC(=O)[C@@H]3CCCN3C(=O)Cc3ccccn3)cc2)cc1 [Example 49]
Assay System: HCV 1b-377-neo replicon cells
Quantity Measured: EC50
Result: 0.1 to 90 nM
//
Compound: CC(C)(C)OC(=O)n1cc(C(=O)N2CCC[C@H]2C(=O)Nc2ccc(/C=C/c3ccc(NC(=O)[C@@H]4CCCN4C(=O)c4cn(C(=O)OC(C)(C)C)c5ccccc45)cc3)cc2)c2ccccc21 [Example 208]
Assay System: HCV 1b-377-neo replicon cells
Quantity Measured: EC50
Result: 1000 to 10000 nM
//
Compound: O=C(Nc1ccc(/C=C/c2ccc(NC(=O)[C@@H]3CCCN3C(=O)c3nccc4ccccc34)cc2)cc1)[C@@H]1CCCN1C(=O)c1nccc2ccccc12 [Example 300]
Assay System: HCV 1b-377-neo replicon cells
Quantity Measured: EC50
Result: 0.1 to 90 nM
//
Compound: O=C(Nc1ccc(/C=C/c2ccc(NC(=O)[C@@H]3CCCN3C(=O)OCc3ccccc3)cc2)cc1)C1CC1 [Example 293]
Assay System: HCV 1b-377-neo replicon cells
Quantity Measured: EC50
Result: 100 to 1000 nM
//
Compound: O=C(Nc1ccc(/C=C/c2ccc(NC(=O)[C@@H]3CCCN3C(=O)C3CC(=O)N(CCc4cccs4)C3)cc2)cc1)[C@@H]1CCCN1C(=O)C1CC(=O)N(CCc2cccs2)C1 (stereo partly drawn) [Example 156]
Assay System: HCV 1b-377-neo replicon cells
Quantity Measured: EC50
Result: 1000 to 10000 nM

// lookup EC50 for Cc1ccsc1C(=O)N1CCC[C@H]1C(=O)Nc1ccc(/C=C/c2ccc(NC(=O)[C@@H]3CCCN3C(=O)c3sccc3C)cc2)cc1 [Example 198]
100 to 1000 nM

---

Tested on: HCV 1b-377-neo replicon cells
Test: HCV replicon FRET assay
Assay type: cell-based
Conditions: Hepatitis C virus; HCV replicon; read-out: Activity (EC50)
Excerpt: The HCV replicon cell line was isolated from colonies as described by Lohman, et. al. (Science 1999, 285, 110-113, expressly incorporated by reference in its entirety) and used for all experiments. The HCV replicon has the nucleic acid sequence set forth in EMBL Accession No.: AJ242652, the coding sequence of which is from nt 1801 to 7758. […]
Quantity Measured: EC50

Sample answers from the record:
Structure String: O=C(Nc1ccc(/C=C/c2ccc(NC(=O)[C@@H]3CCCN3C(=O)c3ccccn3)cc2)cc1)[C@@H]1CCCN1C(=O)c1ccccn1
Result: 1000 to 10000 nM
--
Structure String: CCN(CC)C(=O)N1CCC[C@H]1C(=O)Nc1ccc(/C=C/c2ccc(NC(=O)[C@@H]3CCCN3C(=O)N(CC)CC)cc2)cc1
Result: 0.1 to 90 nM

// lookup EC50 for O=C(Nc1ccc(/C=C\c2ccc(NC(=O)[C@@H]3C[C@@H](O)CN3C(=O)OCc3ccccc3)cc2)cc1)[C@@H]1C[C@@H](O)CN1C(=O)OCc1ccccc1
100 to 1000 nM

---

system: HCV 1b-377-neo replicon cells; test: HCV replicon FRET assay; assay type: cell-based; conditions: Hepatitis C virus; HCV replicon; read-out: Activity (EC50)
Recorded measurements of EC50, one per entry

Sample answers from the record:
Compound: O=C(Nc1ccc(/C=C/c2ccc(NC(=O)[C@@H]3CCCN3C(=O)c3c[nH]cn3)cc2)cc1)[C@@H]1CCCN1C(=O)c1c[nH]cn1 [Example 210]
Quantity Measured: EC50
Result: 1000 to 10000 nM
//
Compound: CC(C)N(C(=O)N1CCCC1C(=O)Nc1ccc(/C=C/c2ccc(NC(=O)C3CCCN3C(=O)N(C(C)C)C(C)C)cc2)cc1)C(C)C (stereo not drawn) [Example 284]
Quantity Measured: EC50
Result: 0.1 to 90 nM
//
Compound: O=C(Nc1ccc(/C=C/c2ccc(NC(=O)[C@@H]3CCCN3C(=O)c3c[nH]c4ccccc34)cc2)cc1)[C@@H]1CCCN1C(=O)c1c[nH]c2ccccc12 [Example 209]
Quantity Measured: EC50
Result: 100 to 1000 nM
//
Compound: CC(C)(C)O[C@@H]1C[C@@H](C(=O)Nc2ccc(/C=C/c3ccc(NC(=O)[C@@H]4C[C@@H](OC(C)(C)C)CN4C(=O)Cc4cccnc4)cc3)cc2)N(C(=O)Cc2cccnc2)C1 [Example 131]
Quantity Measured: EC50
Result: 0.1 to 90 nM
//
Compound: CCC(C)NC(=O)O[C@@H]1C[C@@H](C(=O)Nc2ccc(/C=C/c3ccc(NC(=O)[C@@H]4C[C@@H](O)CN4C(=O)OCc4ccccc4)cc3)cc2)N(C(=O)OCc2ccccc2)C1 (stereo partly drawn) [Example 245]
Quantity Measured: EC50
Result: 1000 to 10000 nM

// below: EC50 requested for another compound
// lookup EC50 for O=C(Nc1ccc(/C=C/c2ccc(NC(=O)[C@@H]3CCCN3C(=O)c3ccncc3)cc2)cc1)[C@@H]1CCCN1C(=O)c1ccncc1 [Example 58]
0.1 to 90 nM

---

tested on: HCV 1b-377-neo replicon cells; assay: HCV replicon FRET assay; format: cell-based; details: Hepatitis C virus; HCV replicon; read-out: Activity (EC50)
Quantity Measured: EC50

Compound: O=C(Nc1ccc(/C=C/c2ccc(NC(=O)[C@@H]3CCCN3C(=O)[C@H]3CCCO3)cc2)cc1)[C@H]1CCCO1 [Example 263]
Result: 1000 to 10000 nM

Compound: Cc1cc(CC(=O)N2CCC[C@H]2C(=O)Nc2ccc(/C=C/c3ccc(NC(=O)[C@@H]4CCCN4C(=O)Cc4cc(C)no4)cc3)cc2)on1 [Example 36]
Result: 0.1 to 90 nM

Compound: O=C(Cc1ccccc1)Nc1ccc(/C=C/c2ccc(NC(=O)[C@@H]3CCCN3C(=O)Cc3ccccc3)cc2)cc1 [Example 254]
Result: 100 to 1000 nM

Compound: O=C(Nc1ccc(/C=C/c2ccc(NC(=O)[C@@H]3CCCN3C(=O)C3CCC3)cc2)cc1)[C@@H]1CCCN1C(=O)c1ccccn1 [Example 85]
Result: 0.1 to 90 nM

Compound: Cc1nc2ccccn2c1C(=O)N1CCC[C@H]1C(=O)Nc1ccc(/C=C/c2ccc(NC(=O)[C@@H]3CCCN3C(=O)c3c(C)nc4ccccn34)cc2)cc1 [Example 187]
Result: 0.1 to 90 nM

// below: EC50 requested for another compound
// lookup EC50 for CC(C)(C)O[C@@H]1C[C@@H](C(=O)Nc2ccc(/C=C/c3ccc(NC(=O)[C@@H]4C[C@@H](OC(C)(C)C)CN4C(=O)Cc4ccccc4)cc3)cc2)N(C(=O)Cc2ccccc2)C1 [Example 295]
1000 to 10000 nM
